Tested on: HDQ-P1
Assay: normalised response (% of control), CellTiter-Glo; higher = more viable cells (100 = DMSO, 0 = benzethonium chloride kill control)
Conditions: incubation time: 72 h
PROPERTY_MEASURED: normalised response (%)
Give just the numeric value; % need not be written.

Lab note: HDQ-P1 assay, enter normalised response for CCc1c2c(nc3ccc(OC(=O)N4CCC(N5CCCCC5)CC4)cc13)-c1cc3c(c(=O)n1C2)COC(=O)[C@]3(O)CC [Irinotecan] (10000 nM) here
73.3

Lab note: HDQ-P1 assay, enter normalised response for c1ccc2c(CCNc3ccc(Nc4ccncc4)cc3)c[nH]c2c1 [Serdemetan] (10000 nM) here
73.6

Lab note: HDQ-P1 assay, enter normalised response for CCn1c(-c2nonc2N)nc2cnc(Oc3cccc(NC(=O)c4ccc(OCCN5CCOCC5)cc4)c3)cc21 (10000 nM) here
75.9

Lab note: HDQ-P1 assay, enter normalised response for CCOC(=O)CCNc1cc(N2CCc3ccccc3CC2)nc(-c2ccccn2)n1 [GSK-J4] (100000 nM) here
1.14

----------
System: BT-549
Experiment: normalised response (% of control), CellTox Green; higher = less cell death (100 = DMSO, 0 = benzethonium chloride kill control)
Conditions: incubation time: 72 h
Task for the reader: assign each of the following compounds its reported normalised response.
Give just the numeric value; % need not be written.

Assign normalised response to the following record: COc1cc(OC2CCN(C)CC2)ccc1Nc1ncc2c(n1)n(C1CCCC1)c(=O)n2C [AZ 3146] (10000 nM)
105

Assign normalised response to the following record: O=C(/C=C/c1cccc(S(=O)(=O)Nc2ccccc2)c1)NO [Belinostat] (10000 nM)
103

Assign normalised response to the following record: CC(C)C[C@@H](C(=O)N[C@H](C(=O)OC1CCCC1)c1ccccc1)[C@H](O)C(=O)NO [Tosedostat] (100 nM)
72.1

Assign normalised response to the following record: COCC1(CO)C(=O)C2CCN1CC2 (centres undefined) [Prima-1 Met] (100 nM)
102

----------
Task for the reader: assign each of the following molecules its reported normalised response.
System: MDA-MB-231
Assay: normalised response (% of control), CellTiter-Glo; higher = more viable cells (100 = DMSO, 0 = benzethonium chloride kill control)
Settings: incubation time: 72 h
Give just the numeric value; % need not be written.

Assign normalised response to the following record: O=C(Nc1ccncc1)C(=O)c1cn(Cc2ccc(Cl)cc2)c2ccccc12 [Indibulin] (10000 nM)
53.8

Assign normalised response to the following record: COc1cc(OC2CCN(C)CC2)ccc1Nc1ncc2c(n1)n(C1CCCC1)c(=O)n2C [AZ 3146] (10000 nM)
62.3

Assign normalised response to the following record: Cc1ccc(NC(=O)c2ccc(CN3CCN(C)CC3)cc2)cc1Nc1nc(-c2cccnc2)cs1 [Masitinib] (10000 nM)
51.5

Assign normalised response to the following record: COCC[n+]1c2c(n(Cc3cnccn3)c1C)C(=O)c1ccccc1C2=O [YM155] (10000 nM)
-0.19

Assign normalised response to the following record: Oc1ccc2c(c1)CC[C@H](c1ccccc1)[C@@H]2c1ccc(OCCN2CCCC2)cc1 [Lasofoxifene] (1000 nM)
102

Assign normalised response to the following record: O=P1(N(CCCl)CCCl)NCCCO1 (centres undefined) [Cyclophosphamide] (40000 nM)
99.9

Assign normalised response to the following record: COc1cc(O)c2c(c1)/C=C/C[C@H](O)[C@H](O)C(=O)/C=C\C[C@H](C)OC2=O [(5Z)-7-Oxozeaenol] (10000 nM)
4.8

Assign normalised response to the following record: O=C(/C=C/c1cccc(S(=O)(=O)Nc2ccccc2)c1)NO [Belinostat] (10000 nM)
2.16

Assign normalised response to the following record: O=C(Nc1cccnc1)N1CCC(Cc2cccc(Oc3ccc(C(F)(F)F)cn3)c2)CC1 [PF-3845] (10000 nM)
89.1

----------
Tested on: DU-4475
Test: normalised viability (% of control), CellTiter-Blue; higher = more viable cells (about 100 = DMSO control)
Conditions: 30 nM; incubation time: 72 h
Task for the reader: assign each of the following molecules its reported normalised viability.
Please answer in the form of a number followed by its unit of measurement.

Assign normalised viability to the following record: COC(=O)c1ccc2c(c1)NC(=O)/C2=C(\Nc1ccc(N(C)C(=O)CN2CCN(C)CC2)cc1)c1ccccc1 [BIBF 1120]
100%

Assign normalised viability to the following record: CNC(=O)c1cc(Oc2ccc(NC(=O)Nc3ccc(Cl)c(C(F)(F)F)c3)c(F)c2)ccn1 [Regorafenib]
100%

Assign normalised viability to the following record: N#Cc1ccc(COC[C@H]2O[C@@H](n3c(NCc4ccc(Cl)c(Cl)c4)nc4c(N)ncnc43)[C@H](O)[C@@H]2O)cc1
88.7%

Assign normalised viability to the following record: COCC[n+]1c2c(n(Cc3cnccn3)c1C)C(=O)c1ccccc1C2=O [YM155]
95.8%

----------
Tested on: CAL-148
Assay: normalised viability (% of control), CellTiter-Blue; higher = more viable cells (about 100 = DMSO control)
Details: 100 nM; incubation time: 72 h
Task for the reader: assign each of the following compounds its reported normalised viability.
Give just the numeric value; % need not be written.

Assign normalised viability to the following record: COCC[n+]1c2c(n(Cc3cnccn3)c1C)C(=O)c1ccccc1C2=O
1.83

Assign normalised viability to the following record: O=C(Nc1ccncc1)C(=O)c1cn(Cc2ccc(Cl)cc2)c2ccccc12
94.5

Assign normalised viability to the following record: Cc1cc(Nc2cc(CN3CCOCC3)c3nc(C)c(Cc4ccc(Cl)cc4F)n3n2)n[nH]1
88.2

Assign normalised viability to the following record: COCC1(CO)C(=O)C2CCN1CC2 (stereo not given)
89.2

Assign normalised viability to the following record: COC(=O)c1ccc2c(c1)NC(=O)/C2=C(\Nc1ccc(N(C)C(=O)CN2CCN(C)CC2)cc1)c1ccccc1
97.7

----------
Task for the reader: assign each of the following molecules its reported normalised response.
Tested on: HCC1143
Experiment: normalised response (% of control), CellTox Green; higher = less cell death (100 = DMSO, 0 = benzethonium chloride kill control)
Conditions: incubation time: 72 h
Give just the numeric value; % need not be written.

Assign normalised response to the following record: COc1cc(OC2CCN(C)CC2)ccc1Nc1ncc2c(n1)n(C1CCCC1)c(=O)n2C [AZ 3146] (100 nM)
96.7

Assign normalised response to the following record: CNC(=O)c1cc(Oc2ccc(NC(=O)Nc3ccc(Cl)c(C(F)(F)F)c3)c(F)c2)ccn1 [Regorafenib] (10000 nM)
120

Assign normalised response to the following record: CNC(=O)c1ccc(N2C(=S)N(c3ccc(C#N)c(C(F)(F)F)c3)C(=O)C2(C)C)cc1F [Enzalutamide] (100 nM)
111

Assign normalised response to the following record: Nc1cc(C(F)(F)F)c(-c2cc(N3CCOCC3)nc(N3CCOCC3)n2)cn1 [Buparlisib] (1000 nM)
95.9

Assign normalised response to the following record: c1ccc2c(CCNc3ccc(Nc4ccncc4)cc3)c[nH]c2c1 [Serdemetan] (100 nM)
104

Assign normalised response to the following record: CNC(=O)c1ccc(N2C(=S)N(c3ccc(C#N)c(C(F)(F)F)c3)C(=O)C23CCC3)cc1F [RD162] (100 nM)
84.3

Assign normalised response to the following record: O=C(/C=C/c1cccc(S(=O)(=O)Nc2ccccc2)c1)NO [Belinostat] (1000 nM)
100

Assign normalised response to the following record: Cc1cc(Nc2cc(CN3CCOCC3)c3nc(C)c(Cc4ccc(Cl)cc4F)n3n2)n[nH]1 [Gandotinib] (1000 nM)
97

----------
Task for the reader: assign each of the following compounds its reported normalised response.
Test system: MFM-223
Test: normalised response (% of control), CellTiter-Glo; higher = more viable cells (100 = DMSO, 0 = benzethonium chloride kill control)
Settings: incubation time: 72 h
Give just the numeric value; % need not be written.

Assign normalised response to the following record: COc1cc2c(NC3CCN(C(C)C)CC3)nc(N3CCC(F)(F)CC3)nc2cc1OCCCN1CCCC1 [UNC0642] (10000 nM)
32.9

Assign normalised response to the following record: CC(C)C[C@@H](C(=O)N[C@H](C(=O)OC1CCCC1)c1ccccc1)[C@H](O)C(=O)NO [Tosedostat] (10000 nM)
55.9

Assign normalised response to the following record: CNC(=O)c1ccc(N2C(=S)N(c3ccc(C#N)c(C(F)(F)F)c3)C(=O)C2(C)C)cc1F [Enzalutamide] (10000 nM)
89.3

Assign normalised response to the following record: COC(=O)c1ccc2c(c1)NC(=O)/C2=C(\Nc1ccc(N(C)C(=O)CN2CCN(C)CC2)cc1)c1ccccc1 [Nintedanib] (10000 nM)
50.6

Assign normalised response to the following record: CN(C)CCOc1ccc(/C(=C(/CCCl)c2ccccc2)c2ccccc2)cc1 [Toremifene] (10000 nM)
48.4

Assign normalised response to the following record: S=P(N1CC1)(N1CC1)N1CC1 [Thio-TEPA] (50000 nM)
101

Assign normalised response to the following record: Cc1ccc(NC(=O)c2ccc(CN3CCN(C)CC3)cc2)cc1Nc1nc(-c2cccnc2)cs1 [Masitinib] (10000 nM)
73

Assign normalised response to the following record: COCC1(CO)C(=O)C2CCN1CC2 (centres undefined) [Prima-1 Met] (10000 nM)
103

Assign normalised response to the following record: CCn1c(-c2nonc2N)nc2cnc(Oc3cccc(NC(=O)c4ccc(OCCN5CCOCC5)cc4)c3)cc21 (10000 nM)
62.1
